growth by entry:
- Tested on: NCI-H460 lung
- protocolDetails: NCI-60 one-dose screen, 48 h (100 = growth as untreated, 0 = no growth, -100 = all killed)
- experimentalConditions: 10 µM unless noted
- Procedure: Growth inhibition of the NCI-H460 human Non-Small Cell Lung tumor cell line is measured as a screen for anti-cancer activity. Cells are grown in 96 well plates and exposed to the test compound for 48 hours. Compounds are tested at a single concentration, which is 10^-5 M for most compounds. The reported endpoint is percent growth (GI% or GIPRCNT), where numbers from 0 - 100% represent growth inhibition, and numbers from -100% - 0 represent cell death. […]
This is part of a sample that, as a whole, favours compounds with a hit. Of some 83,000 tested, about 20% had one in any assay. The source made the active and inactive calls. The calls were made as follows: active = growth percent below 10; inactive = the rest.
reportedProperty: growth

Cc1cnc([C@]23CC[C@@H](C)[C@H](C)[C@H]2C2=CC[C@@H]4[C@@]5(C)Cc6c([nH]c7ccccc67)C(C)(C)[C@@H]5CC[C@@]4(C)[C@]2(C)CC3)o1: 16.7% [100 µM] (inactive)
COc1ccc(C=C2c3ccccc3-c3ccccc32)cc1: 30.6% (inactive)
Cc1ccc(S(=O)(=O)Oc2ccc([N+](=O)[O-])cc2[N+](=O)[O-])cc1: 110% (inactive)
COc1ccc(N(c2nc(-c3ccc([N+](=O)[O-])cc3)cs2)C(C)C)cc1: 84.1% (inactive)
O=S(=O)(NCc1ccccc1)c1ncnc2nc[nH]c12: 117% (inactive)
COc1c(C(C)=O)c(OCCCCOc2c(C(C)=O)c(OC)c3ccoc3c2OC)c(OC)c2occc12: 80.1% (inactive)
O=c1[nH]c(CN2CCN(c3cccc(Cl)c3)CC2)nc2cc(Cl)ccc12: 104% (inactive)

* * *

- Test system: SNB-19 CNS
- protocolDetails: NCI-60 one-dose screen, 48 h (100 = growth as untreated, 0 = no growth, -100 = all killed)
- experimentalConditions: 10 µM unless noted
- Procedure: Growth inhibition of the SNB-19 human tumor cell line is measured as a screen for anti-cancer activity. Cells are grown in 96 well plates and exposed to the test compound for 48 hours. Compounds are tested at a single concentration, which is 10^-5 M for most compounds. The reported endpoint is percent growth (GI% or GIPRCNT), where numbers from 0 - 100% represent growth inhibition, and numbers from -100% - 0 represent cell death. For example, a value of 40 represents 60% growth inhibition. […]
The panel holds about 83,000 compounds, 20% with a hit somewhere; the sample as a whole holds those more often.
reportedProperty: growth (%)

COc1ncnc2c(-c3ccccc3)cn(COCc3ccccc3)c12: 78
COc1ccc(/C=C/C=C\C(=O)c2ccc(-n3ccnc3)cc2)cc1: 87.6
O=S(=O)(NCc1ccccc1)c1ncnc2nc[nH]c12: 108
COc1cc(OC)c(/C=C/C(=O)c2c(N)cc(OC)cc2OC)c(OC)c1: 27.9

* * *

- System: HCC-2998 colon
- protocolDetails: NCI-60 one-dose screen, 48 h
- experimentalConditions: 10 µM unless noted
- Procedure: Growth inhibition of the HCC-2998 human tumor cell line is measured as a screen for anti-cancer activity. Cells are grown in 96 well plates and exposed to the test compound for 48 hours. Compounds are tested at a single concentration, which is 10^-5 M for most compounds. The reported endpoint is percent growth (GI% or GIPRCNT), where numbers from 0 - 100% represent growth inhibition, and numbers from -100% - 0 represent cell death. For example, a value of 40 represents 60% growth inhibition. […]
About 83,000 compounds went through this panel and 20% of them were active in at least one assay; those are over-represented in the sample as a whole. The source made the active and inactive calls. How the source made its calls: active means growth percent below 10; inactive means the rest.
Classes used: yes (1) = active, no (0) = inactive

O=C(N/N=C\c1cc(Cl)ccc1O)N/N=C/c1cc(Cl)ccc1O: no (0)
c1ccc2c(c1)CN(CCCN1CCOCC1)C2: no (0)
C=C(C)[C@@H]1CC[C@]2(C(=O)NCCNCCNCCN)CC[C@]3(C)[C@H](CC[C@@H]4[C@@]5(C)CC[C@H](O)C(C)(C)[C@@H]5CC[C@]43C)[C@@H]12: yes (1)
Nc1ccc(Cl)c([N+](=O)[O-])c1: no (0)
COc1ccccc1S(=O)Nc1ccccc1 (stereo not given): no (0)
